B1: TRIM63 (parent)
chain: QEKKLSFIEALIQQYQEQLDKSTK

Variants of: B1
Experiment: protein stability index of a GFP-peptide fusion (GPS, HEK-293T) (PSI 1-6); higher = more stable;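 note: lentivirally expressed fusions sorted by FACS into six bins by GFP to DsRed ratio, PSI derived from sequencing read proportions per bin multiplied by bin number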
Details: c terminus: a fixed tail appended
Categorized via protein stability index: group 1 = under 2, group 2 = from 2 up to 3, group 3 = 3 and over

{"Mutant code": "T23P", "Discrete label": "group 2"}
{"Mutant code": "I12P", "Discrete label": "group 3"}
{"Mutant code": "E17W", "Discrete label": "group 1"}

Task: For L19M , which protein stability index bin applies?
Output: group 3

Task: For L19P , which protein stability index bin applies?
Output: group 3

Task: For Q18A , which protein stability index bin applies?
Output: group 2
